System: CAKI-1 renal
Assay: NCI tumour cell line growth inhibition, 48 h
We begin with a simple list: items and their reported TGI.

Study these solved cases before continuing.
INSERT INTO measurements (compound, quantitykind, readoutvalue) VALUES
  ('C[Si](C)(C)C1=C2C(=O)c3ccccc3C(=O)C2=C([Si](C)(C)C)[C@@H]2CCCC[C@H]12', 'TGI', '> 100 µM'),
  ('COC(=O)[C@H]1ON2O[C@H](OC3CCCC[C@@H]3c3ccccc3)C[C@@H]3CC[C@H]1[C@@]32C (stereo not given in full)', 'TGI', '> 100 µM'),
  ('COc1ccc(/C=N/NC(=O)c2ccccc2Nc2ccccc2C(=O)N/N=C/c2ccc(OC)c(OC)c2)cc1OC', 'TGI', '> 100 µM'),
  ('O=C1c2c(ccc3c2CCCC3)CC12Cc1ccccc1C2', 'TGI', '> 77.7 µM');

// next item, TGI requested
// sample "Cc1nn(C(=O)CC(=O)Nc2ccccc2Cl)c(C)c1N=Nc1ccccc1Cl" , its TGI was > 100 µM
